Where these numbers come from: ChEMBL document CHEMBL3272033

assay: Dissociation constant, pKa of the compound in 0.01 M potassium hydrogen phthalate; format: physicochemical
Measured endpoint: pKa
One number for each entry.

CN1CC[C@H]2CCC[C@@H](NS(=O)(=O)c3ccccc3)[C@H]2C1 (mixture of isomers)	9.17
COc1cc(C(=O)O[C@@H]2CCC[C@@H]3CCN(C)C[C@H]32)cc(OC)c1OC (mixture of isomers)	8.82
CN1CC[C@H]2CCC[C@@H](OC(=O)c3ccc(Cl)cc3)[C@H]2C1 (mixture of isomers)	8.9

For every listed record, write down its pKa.
1. COc1cc(C(=O)N[C@@H]2CCC[C@@H]3CCN(C)C[C@H]32)cc(OC)c1OC (mixture of isomers)
2. COc1ccccc1C(=O)N[C@@H]1CCC[C@@H]2CCN(C)C[C@@H]21 (mixture of isomers)
3. CN1CC[C@H]2CCC[C@@H](OC(=O)c3ccccc3)[C@H]2C1 (relative stereo)

## Output
8.75
9.11
9.05

## Input pKa for CN1CC[C@H]2CCC[C@@H](NS(=O)(=O)c3ccccc3)[C@@H]2C1 (mixture of isomers) ?
## Output 8.87
